Target: T1, Fc antigen protein of human TROP2 domains TY-1 + CPD (human, UniProt P09758 70-274, limits assumed)
T1 construct: domain: TY-1 + CPD; not shown: Fc
T1 sequence (looked up): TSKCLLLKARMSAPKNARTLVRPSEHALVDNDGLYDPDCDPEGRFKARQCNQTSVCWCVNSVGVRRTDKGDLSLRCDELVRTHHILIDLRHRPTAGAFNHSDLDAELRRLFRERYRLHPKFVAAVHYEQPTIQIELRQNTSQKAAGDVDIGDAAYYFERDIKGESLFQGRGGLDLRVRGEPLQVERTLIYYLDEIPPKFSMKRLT
Assay: ELISA, coated Fc protein of human TROP2 TY-1 + CPD, Kd calculated from absorbance
Entries and their Kd
Write down the numeric answer in pM and omit the unit.

binder	observed measurement
MY1530-4-22 (VHH, Expressed in E. coli WK6 from vector pMECS, purified on a nickel column; also called MY1530-4-22 VHH; anti-TROP2 single domain antibody) VHH: QVQLQESGGGSVQAGGSLKLSCVVSGYTVSSVCMAWFRQAPGMERELVAGFYHSGGTYYGDSVKGRFTASQDNAKNTLYLQMNSLKPEDTATYYCARARYPSSACGTSPSNYNIWGQGTQVTVSS	530
MY1530-5-54 (VHH, Expressed in E. coli WK6 from vector pMECS, purified on a nickel column; also called MY1530-5-54 VHH; anti-TROP2 single domain antibody) VHH: QVQLQESGGGSVQPGGSLRLSCVASGYTASSVCMAWFRQAPGKERELVAGYYHSGGTYYGDSVKGRFTASQDNAKNTLYLQMNSLKPEDTATYYCARARYPSSACGTSPSNYNIWGQGTQVTVSS	530

Consider the binder shown here: MY1530-5-17 (VHH, Expressed in E. coli WK6 from vector pMECS, purified on a nickel column; also called MY1530-5-17 VHH; anti-TROP2 single domain antibody) VHH: QVQLQESGGGSVQPGGSLRLSCVVSGYTVSSVCMAWFRQAPGMERELVAGFYHSGGTYYGDSVKGRFTASQDNAKNTLYLQMNSLKPEDTATYYCARARYPSSACGTSPSNYNIWGQGTQVTVSS What is its recorded Kd?
530

// same read-out, input: MY1530-6-1 (VHH, Expressed in E. coli WK6 from vector pMECS, purified on a nickel column; also called MY1530-6-1 VHH; anti-TROP2 single domain antibody) VHH: QVQLQESGGGSVQAGGSLRLSCAASGFPYSSYSMGWFRQAPGKEREGVAAIYTGGGSTYYAGSVKGRFTISQEHATNTLYLQMNSLKPEDTAMYYCAANMVDNGVISGIQALGVRYYNYWGQGTQVTVSS
2140
